- assayComment: Plasma clearance in rats
- Type: ADME, organism-based
- conditionDetails: rat, read-out: Clp
property: clearance (mL/min/kg)

{"structure": "C[C@@H]1C(=O)NCCCN1C(=O)C[C@H](N)Cc1cc(F)c(F)cc1F", "measuredNumber": 88}
{"structure": "N[C@@H](CC(=O)N1CCCNC(=O)[C@H]1CC(F)(F)F)Cc1cc(F)c(F)cc1F", "measuredNumber": 94}

###

- assayComment: Oral bioavailability in rats
- Format: ADME, organism-based
- conditionDetails: rat, in vivo
property: bioavailability (%)

{"structure": "C[C@@H]1C(=O)NCCCN1C(=O)C[C@H](N)Cc1cc(F)c(F)cc1F", "bioavailability, %": 26}
{"structure": "N[C@@H](CC(=O)N1CCCNC(=O)[C@H]1CC(F)(F)F)Cc1cc(F)c(F)cc1F", "bioavailability, %": 36}

###

- assayComment: Half-life in rats
- Type: ADME, organism-based
- conditionDetails: rat, in vivo
property: half-life (h)

1. C[C@@H]1C(=O)NCCCN1C(=O)C[C@H](N)Cc1cc(F)c(F)cc1F
2. N[C@@H](CC(=O)N1CCCNC(=O)[C@H]1CC(F)(F)F)Cc1cc(F)c(F)cc1F
Challenge: // compare measured half-life, left 1 , right 2 , return larger Answer by quoting the chosen item's label.
Response given: 2

###

- system: Dipeptidyl peptidase 2 (Homo sapiens)
pIC50: −log10 of the molar value.
property: pIC50

Challenge: What pIC50 appears in the records for this compound with Dipeptidyl peptidase 2 (Homo sapiens)? `N[C@@H](CC(=O)N1CCCNC(=O)C1)Cc1cc(F)c(F)cc1F`
Response given: < 4.00

###

- assayComment: Half-life in dogs
- Format: ADME, organism-based, Canis lupus familiaris
- conditionDetails: dog, in vivo
property: half-life (min)

1. N[C@@H](CC(=O)N1CCCNC(=O)[C@H]1CC(F)(F)F)Cc1cc(F)c(F)cc1F
2. C[C@@H]1C(=O)NCCCN1C(=O)C[C@H](N)Cc1cc(F)c(F)cc1F
Challenge: Please choose the item with the lower half-life value from this pair: 1 and 2 Refer to your chosen item by its label in the answer.
Response given: 2
